assay: Cytostatic activity against human NCI60 cells by SRB assay; format: functional
measured-quantity: log10 GI50 (log10 of the value in nM)
Note: values are log10 of GI50 expressed in nM.

Worked cases, log10 GI50 given:
{"molecule": "O=C1/C=C/[C@@H](O)[C@@H]2C[C@@H](O)C[C@H]2/C=C/CCC[C@H](CO)O1", "numeric-readout": 3.41}
{"molecule": "O=C1/C=C/[C@@H](O)[C@@H]2C[C@@H](O)C[C@H]2/C=C/CCC[C@H](CCO)O1", "numeric-readout": 2.25}

Please look at the following molecule next.
Kindly indicate its recorded log10 GI50. Item: `C=C[C@H]1CCC/C=C/[C@@H]2C[C@H](O)C[C@H]2[C@H](O)/C=C/C(=O)O1`
1.50
